Value source: patent US20210095028A1

Target: T1, human TIGIT over-expressed on cells (human, UniProt Q495A1 22-244)
T1 construct: also called CHO-K1/human TIGIT cells; CHO cells expressing human TIGIT
T1 sequence: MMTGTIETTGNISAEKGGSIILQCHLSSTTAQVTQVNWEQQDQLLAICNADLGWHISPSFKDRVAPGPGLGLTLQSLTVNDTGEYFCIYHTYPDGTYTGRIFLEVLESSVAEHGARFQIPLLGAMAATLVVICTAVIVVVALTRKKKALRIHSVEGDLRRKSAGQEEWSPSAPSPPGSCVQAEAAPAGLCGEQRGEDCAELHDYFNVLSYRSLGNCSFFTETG
Experiment: competition FACS, CHO cells expressing human TIGIT; competitor PVR recombinant protein (column headed EC50, text says IC50)
Reported IC50 values for a set of binders
Answer format: numeric, nM implied, no suffix.

Binder	IC50, nM
64G1E9B4VH1.M1_VL1.M1 (antibody, human IgG1, V domains shown, Humanized antibody, variable domains fused with the constant region of human IgG1; also called 64G1VH1.M1_VL1.M1) VH: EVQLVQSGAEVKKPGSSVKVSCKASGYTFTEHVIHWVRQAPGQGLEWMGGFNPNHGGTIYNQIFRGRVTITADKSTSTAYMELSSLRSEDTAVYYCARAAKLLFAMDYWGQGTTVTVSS VL: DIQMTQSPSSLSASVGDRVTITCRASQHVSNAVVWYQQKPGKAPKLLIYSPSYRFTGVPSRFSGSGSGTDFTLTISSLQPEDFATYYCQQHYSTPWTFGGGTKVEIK	0.35

Inquiry: Field request: IC50 | item: 64G1E9B4 chimeric (antibody, V domains shown, also called 64G1 Chimeric) VH: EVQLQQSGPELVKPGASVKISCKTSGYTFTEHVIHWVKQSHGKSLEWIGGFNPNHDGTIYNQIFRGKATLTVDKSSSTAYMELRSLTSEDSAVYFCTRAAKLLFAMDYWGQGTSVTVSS VL: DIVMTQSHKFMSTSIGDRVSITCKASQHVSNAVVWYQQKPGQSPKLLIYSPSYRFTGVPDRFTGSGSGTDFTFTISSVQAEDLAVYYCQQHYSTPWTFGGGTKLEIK
Reply text: 0.51
